Target: UniProt:P30305
Sequence (P30305 whole entry): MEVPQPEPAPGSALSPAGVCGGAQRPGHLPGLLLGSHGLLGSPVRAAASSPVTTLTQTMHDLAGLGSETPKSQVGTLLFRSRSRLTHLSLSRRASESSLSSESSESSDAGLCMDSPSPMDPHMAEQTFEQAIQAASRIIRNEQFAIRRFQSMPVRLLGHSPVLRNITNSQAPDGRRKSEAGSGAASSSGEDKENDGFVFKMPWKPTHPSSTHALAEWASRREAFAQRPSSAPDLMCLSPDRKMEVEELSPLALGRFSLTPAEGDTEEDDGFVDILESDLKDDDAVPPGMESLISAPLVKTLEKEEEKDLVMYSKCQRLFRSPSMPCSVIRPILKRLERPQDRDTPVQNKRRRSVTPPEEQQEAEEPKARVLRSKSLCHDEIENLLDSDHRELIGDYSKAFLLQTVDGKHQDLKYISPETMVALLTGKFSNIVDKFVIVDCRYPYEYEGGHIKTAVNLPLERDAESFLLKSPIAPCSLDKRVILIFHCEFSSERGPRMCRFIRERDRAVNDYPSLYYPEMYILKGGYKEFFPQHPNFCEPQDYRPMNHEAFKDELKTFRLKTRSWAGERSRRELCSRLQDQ
Test: inhibition of Cdc25B phosphatase activity – biochemical, 25 mM DTT, probe assessment, dose response (AID 649)
measure: IC50 (µM)
Numbers only, in µM.

INSERT INTO measurements (compoundstructure, measuredtarget, measure, observedmeasurement) VALUES
  ('CCn1nc(-c2cccs2)nc2c(=O)n(C)c(=O)nc1-2', 'UniProt:P30305', 'IC50', 17.2);

Please find the next compound below.
Returns the measured IC50 for the input compound. Input: "CCn1nc(-c2ccccc2)nc2c(=O)n(C)c(=O)nc1-2"
21.1
